Known Maximum_MFI of a selection of binders
- Experimental Target: T1, human MSLN on OVCAR3 tumor cells (human, UniProt Q13421 296-598)
- T1 construct: whole, on cells; also called human MSLN protein
- T1 sequence (Q13421 other isoform, or with tags, fused parts or gaps): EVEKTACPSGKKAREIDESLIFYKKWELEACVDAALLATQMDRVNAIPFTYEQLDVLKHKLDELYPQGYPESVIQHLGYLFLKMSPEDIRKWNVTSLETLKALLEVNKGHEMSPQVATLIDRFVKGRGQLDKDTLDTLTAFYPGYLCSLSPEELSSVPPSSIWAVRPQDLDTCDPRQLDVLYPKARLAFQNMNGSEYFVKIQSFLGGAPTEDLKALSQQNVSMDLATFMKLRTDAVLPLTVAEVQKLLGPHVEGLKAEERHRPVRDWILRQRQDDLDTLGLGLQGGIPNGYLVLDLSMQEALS
- Measurement Description: FACS, OVCAR3 cells
Outcome Measure: Maximum_MFI (MFI)

>>> observed_result("F7.33.24-H9 (scFv, not shown: small tags and cut ends, also called S009-F7.33.24 humanized antibody VH2 + VL3) scFv: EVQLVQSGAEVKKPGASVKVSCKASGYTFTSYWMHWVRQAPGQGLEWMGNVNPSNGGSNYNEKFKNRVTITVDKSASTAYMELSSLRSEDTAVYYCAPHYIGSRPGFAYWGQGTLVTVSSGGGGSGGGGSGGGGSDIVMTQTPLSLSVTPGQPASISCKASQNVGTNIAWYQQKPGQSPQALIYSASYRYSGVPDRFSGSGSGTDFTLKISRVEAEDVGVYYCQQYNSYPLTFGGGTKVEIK")
2190
>>> observed_result("F7.33.24-H12 (scFv, not shown: small tags and cut ends, also called S009-F7.33.24 humanized antibody VH2a + VL3) scFv: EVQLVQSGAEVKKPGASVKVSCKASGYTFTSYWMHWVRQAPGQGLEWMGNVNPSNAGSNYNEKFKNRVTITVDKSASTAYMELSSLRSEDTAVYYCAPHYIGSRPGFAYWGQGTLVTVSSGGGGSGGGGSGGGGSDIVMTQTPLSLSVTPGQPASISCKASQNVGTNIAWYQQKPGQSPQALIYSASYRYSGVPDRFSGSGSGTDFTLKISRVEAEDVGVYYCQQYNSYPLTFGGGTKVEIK")
2200
>>> observed_result("F7.33.24-H8 (scFv, not shown: small tags and cut ends, also called S009-F7.33.24 humanized antibody VH2 + VL2) scFv: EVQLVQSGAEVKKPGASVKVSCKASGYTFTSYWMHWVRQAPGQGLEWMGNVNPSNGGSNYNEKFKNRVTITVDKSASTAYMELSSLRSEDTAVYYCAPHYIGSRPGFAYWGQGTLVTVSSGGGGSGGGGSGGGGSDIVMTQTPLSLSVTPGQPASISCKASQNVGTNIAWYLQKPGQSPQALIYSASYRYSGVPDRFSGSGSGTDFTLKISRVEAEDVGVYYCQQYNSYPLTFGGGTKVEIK")
2250
